Data credit: ChEMBL document CHEMBL2346607

test system: Plasmodium falciparum; test: Antimalarial activity against Plasmodium falciparum FCR-3 infected in human erythrocytes after 72 hrs by lactate dehydrogenase assay; format: functional, cell-based; conditions: FCR-3/Gambia
// NB: equality with 20 ng/mL counts as no (0); only IC50 strictly below is yes (1)

C[C@@H]1C[C@H](C)C[C@H](C)[C@@H](O)CC(=O)O[C@H]([C@@H]2CCC[C@H]2C(=O)N[C@@H](CO)C(=O)O)C/C=C/C=C(/C#N)[C@H](O)[C@@H](C)C1 no (0)
CC(C)SC(=O)[C@@H]1CCC[C@H]1[C@@H]1C/C=C/C=C(/C#N)[C@H](O)[C@@H](C)C[C@H](C)C[C@H](C)C[C@H](C)[C@@H](O)CC(=O)O1 no (0)
CC[C@H](C)[C@H](NC(=O)[C@@H]1CCC[C@H]1[C@@H]1C/C=C/C=C(/C#N)[C@H](O)[C@@H](C)C[C@H](C)C[C@H](C)C[C@H](C)[C@@H](O)CC(=O)O1)C(=O)O yes (1)
CCCCSC(=O)[C@@H]1CCC[C@H]1[C@@H]1C/C=C/C=C(/C#N)[C@H](O)[C@@H](C)C[C@H](C)C[C@H](C)C[C@H](C)[C@@H](O)CC(=O)O1 no (0)
C[C@@H]1C[C@H](C)C[C@H](C)[C@@H](O)CC(=O)O[C@H]([C@@H]2CCC[C@H]2C(=O)O)C/C=C/C=C(/C#N)[C@H](O)[C@@H](C)C1 yes (1)

Please check: IC50 for C#CCOC(=O)[C@@H]1CCC[C@H]1[C@@H]1C/C=C/C=C(/C#N)[C@H](O)[C@@H](C)C[C@H](C)C[C@H](C)C[C@H](C)[C@@H](O)CC(=O)O1 , strictly under 20 ng/mL or not?
yes (1)

Try the molecule C[C@@H]1C[C@H](C)C[C@H](C)[C@@H](O)CC(=O)O[C@H]([C@@H]2CCC[C@H]2C(=O)OCc2cn(-c3ccc(C(=O)O)cc3)nn2)C/C=C/C=C(/C#N)[C@H](O)[C@@H](C)C1
no (0)
